Tested on: Plasmodium berghei
experimental protocol: Change in mean survival time of Plasmodium berghei infected mice (Mus musculus) after […] subcutaneous dose
Format: functional
I'd be grateful if you could share measured Delta MST for these entries.
For clarity, give the value followed by its unit.

Example results:
{"smiles": "[O-][n+]1ccc(Nc2cc(CN3CCCC3)c(O)c(-c3ccc(Cl)c(Cl)c3)c2)c2ccc(Cl)cc21", "Delta MST": "-0.1 days"}
{"smiles": "CCN(CC)Cc1cc(Nc2cc[n+]([O-])c3cc(Cl)ccc23)cc(-c2ccc(C(F)(F)F)cc2)c1O", "Delta MST": "2.6 days"}
{"smiles": "CCN(CC)Cc1cc(Nc2cc[n+]([O-])c3cc(Cl)ccc23)cc(-c2ccc(Cl)cc2)c1O", "Delta MST": "1.3 days"}

Next item in the queue.
Exercise: For the molecule `CC(C)(C)NCc1cc(Nc2cc[n+]([O-])c3cc(Cl)ccc23)cc(-c2ccc(Cl)c(Cl)c2)c1O` , what Delta MST is on record?
Solution: -0.1 days

---

Tested on: Plasmodium berghei
experimental protocol: Change in mean survival time for control (average 6.2 days) versus treated mice (Mus musculus) 72 hrs after […] subcutaneous dose
Format: functional
measured parameter: Delta MST (days)
One number for each entry, in days.

Example results:
{"smiles": "CCN(CC)Cc1cc(Nc2cc[n+]([O-])c3cc(Cl)ccc23)cc(-c2cccc3ccccc23)c1O", "test target": "Plasmodium berghei", "unit symbol": "days", "Delta MST": 12.9}
{"smiles": "CCN(CC)Cc1cc(Nc2cc[n+]([O-])c3cc(Cl)ccc23)cc(-c2ccc(F)cc2)c1O", "test target": "Plasmodium berghei", "unit symbol": "days", "Delta MST": 15}

Exercise: For the molecule `CCN(CC)Cc1cc(Nc2cc[n+]([O-])c3cc(Cl)ccc23)cc(-c2ccc(SC)cc2)c1O` , what Delta MST is on record?
Solution: 27.3

---

Test system: Plasmodium berghei
experimental protocol: Change in mean survival time for control (average 6.2 days) versus treated mice (Mus musculus) 72 hrs after 640 mg/kg subcutaneous dose
Assay type: functional
measured parameter: Delta MST (days)
Give bare numbers, in days.

{"smiles": "CCN(CC)Cc1cc(Nc2ccnc3cc(Cl)ccc23)cc(-c2cccc(F)c2F)c1O", "unit symbol": "days", "Delta MST": 19.8}

Report Delta MST for each item below.
1. CCN(CC)Cc1cc(Nc2ccnc3cc(Cl)ccc23)cc(-c2cccc(C(F)(F)F)c2)c1O
2. CCN(CC)Cc1cc(Nc2ccnc3cc(Cl)ccc23)cc(-c2ccc(O)cc2)c1O
3. CCN(CC)Cc1cc(Nc2ccnc3cc(Cl)ccc23)cc(-c2ccc(SC)cc2)c1O
4. CC(C)(C)NCc1cc(Nc2ccnc3cc(Cl)ccc23)cc(-c2ccc(Cl)cc2)c1O

Solution:
1: 17.9; 2: 4.1; 3: 13.6; 4: 17.1

Report Delta MST for each item below.
1. CCN(CC)Cc1cc(Nc2ccnc3cc(Cl)ccc23)cc(-c2ccc(C)cc2)c1O
2. CCN(CC)Cc1cc(Nc2ccnc3cc(Cl)ccc23)cc(-c2c(F)cccc2F)c1O
3. CC(C)(C)NCc1cc(Nc2ccnc3cc(Cl)ccc23)cc(-c2ccc(C(F)(F)F)cc2)c1O
4. Oc1c(CNC23CC4CC(CC(C4)C2)C3)cc(Nc2ccnc3cc(Cl)ccc23)cc1-c1ccc(Cl)cc1

Solution:
20.5
36.8
11.7
19

---

I'd be grateful if you could share measured Delta MST for these entries.
Test system: Plasmodium berghei
experimental protocol: Change in mean survival time of Plasmodium berghei infected mice (Mus musculus) after […] subcutaneous dose
Assay type: functional
Numbers only, in days.

Example results:
{"compound": "CC(C)(C)NCc1cc(Nc2cc[n+]([O-])c3cc(Cl)ccc23)cc(-c2ccc(Cl)cc2)c1O", "test target": "Plasmodium berghei", "unit symbol": "days", "Delta MST": 0.2}
{"compound": "CCN(CC)Cc1cc(Nc2cc[n+]([O-])c3cc(Cl)ccc23)cc(-c2ccc(Cl)c(Cl)c2)c1O", "test target": "Plasmodium berghei", "unit symbol": "days", "Delta MST": -0.1}
{"compound": "CCN(CC)Cc1cc(Nc2cc[n+]([O-])c3cc(Cl)ccc23)cc(-c2ccccc2C(F)(F)F)c1O", "test target": "Plasmodium berghei", "unit symbol": "days", "Delta MST": 0.1}

Report Delta MST for each item below.
1. CCN(CC)Cc1cc(Nc2cc[n+]([O-])c3cc(Cl)ccc23)cc(-c2ccc(F)cc2)c1O
2. CCN(CC)Cc1cc(Nc2cc[n+]([O-])c3cc(Cl)ccc23)cc(-c2cccc(F)c2)c1O
3. CCN(CC)Cc1cc(Nc2cc[n+]([O-])c3cc(Cl)ccc23)cc(-c2cccc(Cl)c2)c1O
4. CCN(CC)Cc1cc(Nc2cc[n+]([O-])c3cc(Cl)ccc23)cc(-c2ccc(OC)cc2)c1O
5. CCN(CC)Cc1cc(Nc2cc[n+]([O-])c3cc(Cl)ccc23)cc(-c2cccc(C(F)(F)F)c2)c1O
6. CCN(CC)Cc1cc(Nc2cc[n+]([O-])c3cc(Cl)ccc23)cc(-c2ccccc2Cl)c1O
7. CCCCN(CCCC)Cc1cc(Nc2cc[n+]([O-])c3cc(Cl)ccc23)cc(-c2ccc(Cl)cc2)c1O
8. CCN(CC)Cc1cc(Nc2cc[n+]([O-])c3cc(Cl)ccc23)cc(-c2ccccc2)c1O

Solution:
1: 2.1; 2: 0.5; 3: 0.7; 4: -0.1; 5: -0.1; 6: -0.2; 7: -0.2; 8: 0.3

---

I'd be grateful if you could share measured Delta MST for these entries.
Test system: Plasmodium berghei
experimental protocol: Change in mean survival time for control (average 6.2 days) versus treated mice (Mus musculus) 72 hrs after […] subcutaneous dose
Type: functional
Numbers only, in days.

Example results:
{"smiles": "CCN(CC)Cc1cc(Nc2cc[n+]([O-])c3cc(Cl)ccc23)cc(-c2cccc(C(F)(F)F)c2)c1O", "measured parameter": "Delta MST", "recorded number": 27.9}
{"smiles": "CCN(CC)Cc1cc(Nc2cc[n+]([O-])c3cc(Cl)ccc23)cc(-c2ccc(OC)c(OC)c2)c1O", "measured parameter": "Delta MST", "recorded number": 11.1}
{"smiles": "CCN(CC)Cc1cc(Nc2cc[n+]([O-])c3cc(Cl)ccc23)cc(-c2ccccc2)c1O", "measured parameter": "Delta MST", "recorded number": 23.9}

Exercise: For the compound `CCN(CC)Cc1cc(Nc2cc[n+]([O-])c3cc(Cl)ccc23)cc(-c2cc(OC)ccc2OC)c1O` , what Delta MST is on record?
Solution: 27.1

---

Test system: Plasmodium berghei
experimental protocol: Change in mean survival time for control (average 6.2 days) versus treated mice (Mus musculus) after 40 mg/kg subcutaneous dose
Type: functional
measured parameter: Delta MST

Example results:
{"smiles": "CCN(CC)Cc1cc(Nc2cc[n+]([O-])c3cc(Cl)ccc23)cc(-c2ccc(OC)cc2)c1O", "Delta MST": "7.3 days"}
{"smiles": "CCN(CC)Cc1cc(Nc2cc[n+]([O-])c3cc(Cl)ccc23)cc(-c2ccccc2Cl)c1O", "Delta MST": "25.8 days"}
{"smiles": "CCN(CC)Cc1cc(Nc2cc[n+]([O-])c3cc(Cl)ccc23)cc(-c2ccc(Cl)c(Cl)c2)c1O", "Delta MST": "21.2 days"}

Next item in the queue.
Exercise: For the compound `CCN(CC)Cc1cc(Nc2cc[n+]([O-])c3cc(Cl)ccc23)cc(-c2cccc(Cl)c2)c1O` , what Delta MST is on record?
Solution: 25.9 days

---

I'd be grateful if you could share measured Delta MST for these entries.
System: Plasmodium berghei
experimental protocol: Change in mean survival time for control (average 6.2 days) versus treated mice (Mus musculus) 72 hrs after […] subcutaneous dose
Type: functional
Give bare numbers, in days.

{"smiles": "CCN(CC)Cc1cc(Nc2cc[n+]([O-])c3cc(Cl)ccc23)cc(-c2ccc(C(F)(F)F)cc2)c1O", "test target": "Plasmodium berghei", "Delta MST / days": 16.5}
{"smiles": "CCN(CC)Cc1cc(Nc2cc[n+]([O-])c3cc(Cl)ccc23)cc(-c2ccc(OC)cc2)c1O", "test target": "Plasmodium berghei", "Delta MST / days": 15}
{"smiles": "CCN(CC)Cc1cc(Nc2cc[n+]([O-])c3cc(Cl)ccc23)cc(-c2ccccc2OC)c1O", "test target": "Plasmodium berghei", "Delta MST / days": 27.2}

Exercise: For the molecule `CCN(CC)Cc1cc(Nc2cc[n+]([O-])c3cc(Cl)ccc23)cc(-c2cccc(Cl)c2)c1O` , what Delta MST is on record?
Solution: 16.4

---

Test system: Plasmodium berghei
experimental protocol: Change in mean survival time for control (average 6.2 days) versus treated mice (Mus musculus) after 40 mg/kg subcutaneous dose
Format: functional
Each entry gets no (0) if its Delta MST stays under 20 days, and yes (1) if its Delta MST is 20 days or above.

{"compound": "CCN(CC)Cc1cc(Nc2cc[n+]([O-])c3cc(Cl)ccc23)cc(-c2ccc(F)cc2)c1O", "label class": "yes (1)"}

Exercise: hey, is Delta MST for this one >= 20 days? `CCN(CC)Cc1cc(Nc2cc[n+]([O-])c3cc(Cl)ccc23)cc(-c2ccccc2F)c1O`
Solution: no (0)
